- Experimental system: Desmoglein-3 (Homo sapiens) (UniProt P32926)
- Sequence (P32926 whole entry, looked up, the tested form may be a part): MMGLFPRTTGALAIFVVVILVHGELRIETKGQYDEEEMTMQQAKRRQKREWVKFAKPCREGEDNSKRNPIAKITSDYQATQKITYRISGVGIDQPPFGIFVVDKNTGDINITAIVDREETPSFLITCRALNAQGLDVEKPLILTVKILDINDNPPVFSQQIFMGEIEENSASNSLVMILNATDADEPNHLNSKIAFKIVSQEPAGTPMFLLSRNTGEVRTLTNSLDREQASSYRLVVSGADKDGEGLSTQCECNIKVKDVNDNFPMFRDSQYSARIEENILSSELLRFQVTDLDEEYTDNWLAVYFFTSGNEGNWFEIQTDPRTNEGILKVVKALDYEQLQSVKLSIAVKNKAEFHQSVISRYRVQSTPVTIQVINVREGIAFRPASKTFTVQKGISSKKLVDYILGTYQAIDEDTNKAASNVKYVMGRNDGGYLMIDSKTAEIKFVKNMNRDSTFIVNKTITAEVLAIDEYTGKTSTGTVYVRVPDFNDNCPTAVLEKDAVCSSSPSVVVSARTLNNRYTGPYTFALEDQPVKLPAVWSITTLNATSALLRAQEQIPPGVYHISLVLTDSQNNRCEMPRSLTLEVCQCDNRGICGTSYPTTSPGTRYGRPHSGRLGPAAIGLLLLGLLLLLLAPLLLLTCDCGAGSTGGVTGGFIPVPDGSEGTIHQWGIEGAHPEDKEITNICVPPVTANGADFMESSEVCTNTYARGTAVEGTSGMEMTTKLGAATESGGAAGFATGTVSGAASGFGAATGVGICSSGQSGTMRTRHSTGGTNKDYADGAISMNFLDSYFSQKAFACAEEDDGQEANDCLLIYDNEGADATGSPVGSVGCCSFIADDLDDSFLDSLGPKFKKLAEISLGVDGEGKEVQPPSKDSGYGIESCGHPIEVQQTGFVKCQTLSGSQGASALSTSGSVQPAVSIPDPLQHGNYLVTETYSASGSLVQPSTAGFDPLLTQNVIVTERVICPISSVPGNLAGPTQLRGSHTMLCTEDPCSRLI
- Measurement notes: blockers of anti-DSG3 scFv binding – biochemical, bead-based, flow cytometry, scFv-GFP, primary screen (AID 588358);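 note: hits lower antibody fragment binding to DSG3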
- Condition summary: DSG3-coupled beads, at 10 µM
The whole screen tested about 310,000 compounds, of which about 1,500 (0.48%) were called active.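 Rule for the calls: active = binding more than 3 SD below its plate's average and above zero; inconclusive = below that plate limit but binding exactly zero; inactive = the rest.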 What follows is part of a selection rich in actives, with near analogues and random picks from the rest.
Pick one: True (active), False (inactive)

See these solved cases before continuing.
{"columns": ["Record smiles", "Classification"],
 "data": [
  ["Cc1cnc(C(=O)Oc2cccc(Cl)c2Cl)cn1", "True"],
  ["CCOc1ccc(NC(=O)NNC(=O)c2ccc(Cl)cc2Cl)cc1", "False"],
  ["Cc1cnc(C(=O)OCC(=O)Nc2ccc(Cl)cc2Cl)cn1", "False"],
  ["CSc1ncc(Cl)c(C(=O)Nc2cc(C)ccc2C)n1", "False"],
  ["Cc1cnc(C(=O)OCC(=O)NCCCc2ccccc2)cn1", "False"]
]}

Continue with the compound presented below.
Each compound tested received a call. Report the one for CCOc1ccc(CCNC(=O)COC(=O)c2ccc(C)c(S(=O)(=O)N3CCOCC3)c2)cc1OCC .
False
